// values below are reported binning response
- experimental.target: Biotinylated CoV2 Spike ECD PreS-AVI protein (SARS-CoV-2, UniProt P0DTC2 14-1208)
- assay.remarks: Octet binning; competitor 15H7

binder: 15H7 VHH-Fc (Fc fusion) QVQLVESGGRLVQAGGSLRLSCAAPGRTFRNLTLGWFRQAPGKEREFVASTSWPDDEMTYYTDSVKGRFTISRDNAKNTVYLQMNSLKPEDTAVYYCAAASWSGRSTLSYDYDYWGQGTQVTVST
binning response: 0.1
//
binder: 8E9 VHH-Fc (Fc fusion) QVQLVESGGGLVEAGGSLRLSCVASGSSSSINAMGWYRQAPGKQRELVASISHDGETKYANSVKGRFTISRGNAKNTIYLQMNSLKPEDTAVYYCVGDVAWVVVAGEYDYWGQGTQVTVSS
binning response: 0.11

Source: patent US20250382355A1
